# test: Feed consumption during 28-day oral supplementation
# Type: in vivo, Swiss Albino mice
# condition-notes: Week 1; mean ± SD, n = 8 mice
observation-type: feed consumption (grams)
Quick note: give the figure in grams, leave out the unit.

Request: Quick one: give measured feed consumption for "CCNC(=O)CC[C@H](N)C(=O)O"
Response: 41.26

Request: Quick one: give measured feed consumption for "NCCS(=O)(=O)O"
Response: 40.95

Request: Quick one: give measured feed consumption for "C[N+](C)(C)CCOP(=O)([O-])OC[C@H](O)CO"
Response: 40.91

Request: Quick one: give measured feed consumption for "Cn1c(=O)[nH]c2ncn(C)c2c1=O"
Response: 41.73
